- Species on record: Mus musculus
- Test Name: Dose ratio in the presence and absence of the peripheral opioid antagonist in N-methyl-nalorphine in AA writhing mice
- Type: functional
Assignment: determine reported Ratio for the given compounds.
Please give the numeric answer without any surrounding text.

## Input State its Ratio: CC(=O)O.CCN(Cc1ccccc1[N+](=O)[O-])C(=O)CNC(=O)[C@@H](CCCN=C(N)N)NC(=O)[C@@H](N)Cc1ccc(O)cc1
## Output 2.8

## Input State its Ratio: CC(=O)O.CCN(CCc1ccc(C#N)cc1)C(=O)CNC(=O)[C@@H](CCCN=C(N)N)NC(=O)[C@@H](N)Cc1ccc(O)cc1
## Output 1.4

## Input State its Ratio: CC(=O)O.CCN(C(=O)CNC(=O)[C@@H](CCCN=C(N)N)NC(=O)[C@@H](N)Cc1ccc(O)cc1)[C@@H](Cc1ccc(C(F)(F)F)cc1)C(N)=O
## Output 2.9

## Input State its Ratio: CC(=O)O.CCN(CCc1ccc(Cl)c(Cl)c1)C(=O)CNC(=O)[C@@H](CCCN=C(N)N)NC(=O)[C@@H](N)Cc1ccc(O)cc1
## Output 0.5

## Input State its Ratio: CC(=O)O.CCN(CCc1ccccc1F)C(=O)CNC(=O)[C@@H](CCCN=C(N)N)NC(=O)[C@@H](N)Cc1ccc(O)cc1
## Output 13.3

## Input State its Ratio: CC(=O)O.CCN(CCc1ccccc1[N+](=O)[O-])C(=O)CNC(=O)[C@@H](CCCN=C(N)N)NC(=O)[C@H](Cc1ccc(O)cc1)N=C(N)N
## Output 8.6

## Input State its Ratio: CC(=O)O.CCN(CCc1ccc(Cl)c(Cl)c1)C(=O)CNC(=O)[C@@H](CCCN=C(N)N)NC(=O)[C@H](Cc1ccc(O)cc1)N=C(N)N
## Output 1

## Input State its Ratio: CC(=O)O.CCN(C(=O)CNC(=O)[C@@H](CCCN=C(N)N)NC(=O)[C@@H](N)Cc1ccc(O)cc1)[C@@H](Cc1ccc(F)cc1)C(N)=O
## Output 2.3

## Input State its Ratio: CC(=O)O.CN(C(=O)CNC(=O)[C@@H](CCCN=C(N)N)NC(=O)[C@@H](N)Cc1ccc(O)cc1)[C@@H](Cc1ccc([N+](=O)[O-])cc1)C(N)=O
## Output 2.5

## Input State its Ratio: CC(=O)O.CCN(CCc1ccc(F)cc1)C(=O)CNC(=O)[C@@H](CCCN=C(N)N)NC(=O)[C@H](Cc1ccc(O)cc1)N=C(N)N
## Output 2.4

## Input State its Ratio: CC(=O)O.CCN(Cc1ccc(F)cc1)C(=O)CNC(=O)[C@@H](CCCN=C(N)N)NC(=O)[C@H](Cc1ccc(O)cc1)N=C(N)N
## Output 6.4
